Each record here notes measured TGI.
Test system: HOP-62 NSCLC
Assay: NCI tumour cell line growth inhibition, 48 h
RESULT TYPE: TGI

| COMPOUND | RESULT TYPE | RESULT |
| --- | --- | --- |
| O=C1C2CC[C@@H]3C(=O)C(Cl)(Cl)[C@@H]3CCC2C1(Cl)Cl (stereo partly specified) | TGI | > 29.7 µM |
| O=C(/C(=C/c1ccc(O)cc1)c1ccccc1)c1ccccc1 | TGI | 33.9 µM |
| C[n+]1c2ccccc2c(C(=O)Nc2ccc(S(=O)(=O)Nc3ncccn3)cc2)c2ccccc21 | TGI | > 100 µM |
| C=CCOC(=O)N1c2ccc(O)cc2[C@@]23O[C@@]24[C@@H]1C#C/C=C\C#C[C@]3(O)C(=O)C[C@@H]4C | TGI | > 100 µM |
| Cc1cc2occ(S(=O)(=O)NC(=O)Nc3ccc(Cl)cc3)c(=O)c2c(=O)o1 | TGI | > 100 µM |
| COC(=O)C(=O)C(C(=O)C(=O)Nc1ccc(C)c(C)c1)c1nc2ccc([N+](=O)[O-])cc2[nH]c1=O (stereo unspecified) | TGI | > 100 µM |
| S=c1[nH]n2c(COc3cc(Cl)c(OCc4nnc5sc(=S)[nH]n45)cc3Cl)nnc2s1 | TGI | > 100 µM |
| CC(C)=CC(=O)c1c(C(=O)O)nc2ccccc2[n+]1[O-] | TGI | > 100 µM |
| CCCCCCCc1ccc(-c2nnc(N=Nc3ccc(OCCCCC)cc3)s2)s1 | TGI | > 100 µM |
| Cc1cc(Nc2ccc(Cl)cc2)nc(NCCCNc2ccnc3cc(Cl)ccc23)n1 | TGI | 3.07 µM |
| CCSc1ncc(Br)c(Sc2nc(N)nc3nc[nH]c23)n1 | TGI | 24.4 µM |
| CC(NNC(=O)c1ccncc1)c1ccc(Cl)cc1Cl (stereo unspecified) | TGI | > 100 µM |
| CSc1nc[nH]c1C(N)=S | TGI | > 100 µM |
| C(=C\c1c2oc(-c3ccccc3)cc(-c3ccccc3)c-2c2ccccc12)/C=C1\c2ccccc2-c2c(-c3ccccc3)cc(-c3ccccc3)[o+]c21 | TGI | > 100 µM |
| Cc1ccnc(Nc2ccc([N+](=O)[O-])c(NCCN3CCOCC3)n2)c1 | TGI | 71.8 µM |
| O=C(Nc1ccc(C(F)(F)F)cc1[N+](=O)[O-])c1cccnc1 | TGI | > 100 µM |

----------
Tested on: LOX IMVI melanoma
Experiment: NCI tumour cell line growth inhibition, 48 h; in the data active means GI50 below about 0.43 µM; inactive means the rest
Classes used: true = active, false = inactive

| COMPOUND | LABEL |
| --- | --- |
| Oc1ccccc1C=Nc1nc(OCc2ccccc2)nc2[nH]ncc12 | false |
| CC1(C)CC[C@]2(C(=O)O)CC[C@]3(C)C(=CC[C@@H]4[C@@]5(C)C/C(=C/c6ccco6)C(=O)C(C)(C)[C@@H]5CC[C@]43C)[C@@H]2C1 | false |
| NC(N)=N/N=C/c1c(-c2ccc(Cl)c([N+](=O)[O-])c2)nc2sc3ccccc3n12 | true |
| N#CC(NC(=O)CCl)=C(Cl)Cl | false |
| CCSc1ncc(Br)c(Sc2nc(N)nc3nc[nH]c23)n1 | false |
| [Cl-].[Gd+3].[O-]/N=C(\c1ccccc1)c1ccccn1.[O-]/N=C(\c1ccccc1)c1ccccn1.[O-]/N=C(\c1ccccc1)c1ccccn1 | false |
| NC(=O)c1ncn(C2OC(CO)C(O)C2O)c1N (stereo unspecified) | false |
| COc1cc2cc3c(c(O)c2c(O)c1-c1c(OC)cc2cc4c(c(O)c2c1O)C(=O)O[C@H](C)C4)C(=O)O[C@H](C)C3 | false |
| NC(N)=N/N=C/c1c(-c2ccncc2)nc2sc(Cl)cn12 | false |
| O=C1CCS/C(=N/S(=O)(=O)c2ccc(N3N=C4c5ccccc5CC4C3c3cccs3)cc2)N1Cc1ccccc1 (stereo unspecified) | false |
| Cn1ccnc1C(=O)/C=C/c1ccc(C(=O)Nc2c(F)c(F)c(F)c(F)c2F)cc1 | false |
